Values from ChEMBL document CHEMBL3137667

- PARTICULARS: human;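 note: malignant tumour confirmed by histopathology, value gives the count of indexed literature references reporting it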
QUANTITY_MEASURED: Hepatotoxicity (malignant tumour)
Respond with the number and no other words.

>  <MOLECULE>
C[C@]1(O)CC[C@H]2[C@@H]3CCC4=CC(=O)CC[C@]4(C)[C@@]3(F)[C@@H](O)C[C@@]21C [FLUOXYMESTERONE]

>  <RESULT_VALUE>
3

$$$$

# get_value(readout='Hepatotoxicity (malignant tumour)', item= [N-]=[N+]=O [NITROUS OXIDE] )
0

Same again, this time with CCCCCCCCCCCCCCCCSCC(COC)COP(=O)([O-])OCC[N+](C)(C)C (stereo not given) [ILMOFOSINE]
0

Also check COc1c(N2C[C@@H]3CCCN[C@@H]3C2)c(F)cc2c(=O)c(C(=O)O)cn(C3CC3)c12 [MOXIFLOXACIN]
0

Also check Clc1ccc(C(c2ccccc2Cl)C(Cl)Cl)cc1 (stereo not given) [MITOTANE]
0

Now consider CC(C)(C#N)c1cc(Cn2cncn2)cc(C(C)(C)C#N)c1 [ANASTROZOLE] .
0
